Experiment: drug combination growth inhibition, ovarian cancer – cell-based, oncology-focused library, rucaparib conditional, profiling panel (AID 1508598)
Details: patient-derived ovarian cancer cells, CellTiter-Glo viability, 144 h; at 0.313 µM; OCI-C5x cells; with rucaparib 10 µM; active compounds read low; 100% = cells with rucaparib alone
Would you mind telling me the reported viability of each entry?
Return type: number; implicit unit %.

Recorded viability (compound `CN1CCN(c2ccc3nc(-c4c(N)c5c(F)cccc5[nH]c4=O)[nH]c3c2)CC1` ): 125

Recorded viability (compound `Cc1cccc(-c2[nH]c(C(C)(C)C)nc2-c2ccc3nccnc3c2)n1` ): 119

Recorded viability (compound `COc1cc(OC)c(/C=C/S(=O)(=O)Cc2ccc(OC)c(NCC(=O)O)c2)c(OC)c1` ): 50.7

Recorded viability (compound `Cc1cc(N2CCOCC2)cc2[nH]c(-c3c(NC[C@@H](O)c4cccc(Cl)c4)cc[nH]c3=O)nc12` ): 123

Recorded viability (compound `Cc1cn(-c2cc(NC(=O)c3ccc(C)c(Nc4nccc(-c5cccnc5)n4)c3)cc(C(F)(F)F)c2)cn1` ): 107

Recorded viability (compound `Nc1nc(Nc2ccc(S(N)(=O)=O)cc2)nn1C(=O)c1c(F)cccc1F` ): 93.3

Recorded viability (compound `CCCCc1nc2cc(/C=C/C(=O)NO)ccc2n1CCN(CC)CC` ): 92.4

Recorded viability (compound `O=S(=O)(O)CCSSCCS(=O)(=O)O` ): 100

Recorded viability (compound NC(=O)C1CCCc2c1[nH]c1ccc(Cl)cc21 (centres undefined) ): 112

Recorded viability (compound `O=C(NCCCNc1nc(Nc2cccc(NC(=O)N3CCCC3)c2)ncc1I)c1cccs1` ): 137

Recorded viability (compound `Cn1cc(-c2ccc3nnc(Sc4ccc5ncccc5c4)n3n2)cn1` ): 126

Recorded viability (compound `COCCn1c2c([n+](Cc3cnccn3)c1C)C(=O)c1ccccc1C2=O` ): 3.83

Recorded viability (compound `OCCn1cc(-c2cnc3nnn(Cc4ccc5ncccc5c4)c3n2)cn1` ): 126

Recorded viability (compound `CC(C)OC(=O)C1=CN(C(=O)c2ccc(F)c(F)c2)CC(C)(C)c2c1[nH]c1ccccc21` ): 125

====

Test: MELAS cybrid and Rieske KO viability enhancers – cell-based, MELAS cybrids, Rieske KO mouse fibroblasts, CellTiter-Glo, primary screen (AID 1508586);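 further: z relative to plate mean and SD of compound and empty wells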
Details: MELAS cybrid survival, low glucose, CellTiter-Glo 48 h; active compounds read high
The source made the active and inactive calls.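 Rule for the calls: active = mean z-score across replicates of 1.96 or higher in either the MELAS or the Rieske mutant cell line; inactive = the rest.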
Would you mind telling me the reported z-score of each entry?

Recorded z-score (compound `Cc1cccc(-c2nn3c(c2-c2ccnc4ccc(C(N)=O)cc24)CCC3)n1` ): -0.309 (inactive)

Recorded z-score (compound `Cc1cccc(-c2[nH]c(C(C)(C)C)nc2-c2ccc3nccnc3c2)n1` ): -0.318 (inactive)

Recorded z-score (compound `CO[C@H]1/C=C/O[C@@]2(C)Oc3c(C)c(O)c4c(O)c(c5c(nc6cc(C)ccn65)c4c3C2=O)NC(=O)/C(C)=C\C=C\[C@H](C)[C@H](O)[C@@H](C)[C@@H](O)[C@@H](C)[C@H](OC(C)=O)[C@@H]1C` ): 0.239 (inactive)

Recorded z-score (compound `Nc1ccccc1NC(=O)c1ccc(CNC(=O)OCc2cccnc2)cc1` ): -0.681 (inactive)

Recorded z-score (compound `Cc1ccc2nc(NCCN)c3ncc(C)n3c2c1` ): -0.409 (inactive)

Recorded z-score (compound `COc1ccc(CCC(=O)Nc2nc3ccc(Cl)cc3s2)cc1OC` ): 1.34 (inactive)

Recorded z-score (compound `CS(=O)(=O)N1CCc2c(-c3cnc(N)nc3)nc(N3CCOCC3)nc21` ): 3.23 (active)

Recorded z-score (compound `O=C(Nc1c(Cl)cncc1Cl)c1ccc(OC(F)F)c(OCC2CC2)c1` ): -0.193 (inactive)

Recorded z-score (compound O=C(O)CCC1CCC(c2cc(F)ccc2F)(S(=O)(=O)c2ccc(Cl)cc2)CC1 (stereo not given) ): -0.308 (inactive)

Recorded z-score (compound `COc1ccc(C(=O)Nc2sc3c(c2C(N)=O)CCCC3)cc1OC` ): -0.293 (inactive)

Recorded z-score (compound `CC(C)n1cnc2c(NCCc3ccc(O)cc3)nc(-c3csc4ccccc34)nc21` ): -0.0908 (inactive)

Recorded z-score (compound `CN1CCN(c2ccc(OC(F)(F)F)c(Nc3ncc4c(n3)-c3c(c(C(N)=O)nn3CCO)CC4)c2)CC1` ): 1.84 (inactive)

Recorded z-score (compound `Cc1ccc(-n2[nH]c(C)c(N=Nc3cccc(-c4cccc(C(=O)O)c4)c3O)c2=O)cc1C` ): -0.18 (inactive)

Recorded z-score (compound `CNC(=O)c1cc(Oc2ccc(NC(=O)Nc3ccc(Cl)c(C(F)(F)F)c3)c(F)c2)ccn1` ): -0.38 (inactive)

Recorded z-score (compound `Cc1cc(Nc2ncc(Cl)c(Nc3ccccc3S(=O)(=O)C(C)C)n2)c(OC(C)C)cc1C1CCNCC1` ): -0.455 (inactive)

Recorded z-score (compound `Cc1cnc(-c2cnc(NCCNc3ccc(C#N)cn3)nc2-c2ccc(Cl)cc2Cl)[nH]1` ): -0.0957 (inactive)

Recorded z-score (compound Nc1ncnc2c1c(-c1cccc(OCc3ccccc3)c1)cn2C1CC(CN2CCCC2)C1 (stereo not given) ): -0.449 (inactive)

Recorded z-score (compound `Cc1ncc(-c2ccnc(Nc3ccc(S(C)(=O)=O)cc3)n2)n1C(C)C` ): 1.7 (inactive)

Recorded z-score (compound `O=C(c1cncc(Br)c1)N1CCC(N2CCCC2)CC1` ): -0.503 (inactive)

Recorded z-score (compound `O=C(Nc1cccc(C(F)(F)F)c1)Nc1cc(S(=O)(=O)NC2CC2)ccc1-c1ccsc1` ): -0.374 (inactive)

Recorded z-score (compound `Cc1csc(-c2nnc(Nc3ccc(Oc4ncccc4-c4ccnc(N)n4)cc3)c3ccccc23)c1` ): -0.373 (inactive)

Recorded z-score (compound `Oc1cccc(-c2nc(N3CCOCC3)c3oc4ncccc4c3n2)c1` ): 2.46 (active)

Recorded z-score (compound CC(O)C1C(=O)N2C(C(=O)O)=C(SC3CNC(C(=O)N(C)C)C3)C(C)C12 (stereo not given) ): -0.432 (inactive)

Recorded z-score (compound `NC(=O)c1cc[n+](CC2=C(C(=O)O)N3C(=O)[C@@H](NC(=O)[C@@H](c4ccccc4)S(=O)(=O)[O-])[C@H]3SC2)cc1` ): 0.659 (inactive)

Recorded z-score (compound `CNC(=O)c1cc(Oc2ccc(NC(=O)Nc3cc(C(C)(C)C)nn3-c3ccc4ncccc4c3)c(F)c2)ccn1` ): 3.18 (active)

====

Would you mind telling me the reported viability of each entry?
Assay: drug combination growth inhibition, ovarian cancer – cell-based, oncology-focused library, rucaparib conditional, profiling panel (AID 1508598)
Conditions: patient-derived ovarian cancer cells, CellTiter-Glo viability, 144 h; at 0.0781 µM; OCI-P5x cells; with rucaparib 20 µM; active compounds read low; 100% = cells with rucaparib alone
Return type: number; implicit unit %.

Recorded viability (compound `CS(=O)(=O)c1cccc(CNc2nc(Nc3ccc4c(c3)CCC(=O)N4)ncc2C(F)(F)F)c1` ): 88

Recorded viability (compound `CNc1nc(-c2ccc3c(N)n[nH]c3c2)cc(N2C[C@@H](C(=O)NC3CCCCC3)CC[C@H]2C)n1` ): 102

Recorded viability (compound `COc1cc(Nc2ncc(F)c(Nc3ccc4c(n3)NC(=O)C(C)(C)O4)n2)cc(OC)c1OC` ): 59.3

Recorded viability (compound `COc1cc(OC2CCN(C)CC2)ccc1Nc1ncc2c(n1)n(C1CCCC1)c(=O)n2C` ): 118

Recorded viability (compound `Nc1ccccc1NC(=O)c1ccc(CNc2nccc(-c3cccnc3)n2)cc1` ): 103

Recorded viability (compound `S=C(NCc1ccc2c(c1)OCO2)N1CCN(c2ncnc3c2oc2ccccc23)CC1` ): 110

Recorded viability (compound `COCCOc1nc(-c2ccc(Cl)c(Cl)c2)n(-c2ccc(NC(=O)CCl)cc2)n1` ): 95.6

Recorded viability (compound `COc1cc(Nc2ncc3c(n2)-c2ccc(Cl)cc2C(c2c(F)cccc2OC)=NC3)ccc1C(=O)O` ): 91.7

Recorded viability (compound `CCC[C@H](NC(=O)/C(C#N)=C/c1cccc(Br)n1)c1ccccc1` ): 104

Recorded viability (compound `Cc1cc(Nc2nc(N[C@@H](C)c3ncc(F)cn3)ncc2Cl)n[nH]1` ): 96.5

Recorded viability (compound `CN(C)N=Nc1nc[nH]c1C(N)=O` ): 105

Recorded viability (compound `CNC(=O)c1ccc(N2C(=S)N(c3ccc(C#N)c(C(F)(F)F)c3)C(=O)C2(C)C)cc1F` ): 94.7

Recorded viability (compound `CN(C)Cc1c(C(=O)NCCOc2ccc(C(=O)NO)cc2)oc2ccccc12` ): 91.6

Recorded viability (compound Cc1nnc(C(C)C)n1C1CC2CCC(C1)N2CC[C@H](NC(=O)C1CCC(F)(F)CC1)c1ccccc1 (some centres undefined) ): 96

Recorded viability (compound `COCCn1c2c([n+](Cc3cnccn3)c1C)C(=O)c1ccccc1C2=O` ): 18.6

Recorded viability (compound `O=c1cc(N2CCOCC2)oc2c(-c3cccc4c3sc3ccccc34)cccc12` ): 98.6

Recorded viability (compound `Cn1cc(CNCC2CCN(c3ncc(C(=O)NO)cn3)CC2)c2ccccc21` ): 3.73

Recorded viability (compound `CN(c1ncccc1CNc1nc(Nc2ccc3c(c2)CC(=O)N3)ncc1C(F)(F)F)S(C)(=O)=O` ): 92.3

Recorded viability (compound `COC(=O)Nc1ccc(-c2nc(N3CCOCC3)c3cnn(C4CCN(C(=O)OC)CC4)c3n2)cc1` ): 97
